Provide the recorded SPOT peptide array binding signal intensity for the entries that follow.
# target_under_test: AgHse1
# experimental_details: SPOT peptide array binding signal intensity (averaged, normalized) (arbitrary units (background-subtracted, floor 0; scale differs between SH3 domains)); higher = stronger binding of the SH3 domain to the peptide
Hey, just send me the number, nothing else.

Record "QQNRPLPQLPNRNNR" , field SPOT peptide array binding signal intensity: 29

Record "GKKVRPLLVLLLSRA" , field SPOT peptide array binding signal intensity: 1180

Record "LASNSPPVYPKRIRH" , field SPOT peptide array binding signal intensity: 3.5

Record "RSVKRPRRAPRPVVS" , field SPOT peptide array binding signal intensity: 592

Record "NHSRSLFSLPGNQQS" , field SPOT peptide array binding signal intensity: 2350
